test system: SK-MEL-2; assay: NCI tumour cell line growth inhibition, 48 h
The source made the active and inactive calls. Cut-off read from the data, not from the text of the source: active = GI50 up to about 1.1 µM and inactive = higher.
Readout: GI50

// GI50 value for `Cc1c(C=C(C#N)C#N)c(=O)n(C)c(=O)n1C` : > 100 µM (inactive)

# GI50 (molecule: `Cc1ccc(S(=O)(=O)Oc2nc3nc4ccccc4nc3nc2OS(=O)(=O)c2ccc(C)cc2)cc1` ) is > 100 µM (inactive)

Turning now to a further molecule:
// `CN(CCO)Cc1ncccc1O` : GI50 value = > 100 µM (inactive)

* * *

tested on: UO-31; experiment: NCI tumour cell line growth inhibition, 48 h
Calls of active or inactive are those of the source. Cut-off read from the data, not from the text of the source: active = GI50 up to about 1.1 µM and inactive = higher.
Readout: GI50

Lab book: GI50 of CCC1OCCN1C(C)C (stereo not given) noted as 96.6 µM (inactive)

What the record says about `O=C(N/N=C/c1c(-c2ccccc2)no[n+]1[O-])N1CCOCC1` : GI50 is > 100 µM (inactive)

// `COc1ccc(S(=O)(=O)O)cc1NS(=O)(=O)c1ccc(C)cc1` : GI50 value = > 100 µM (inactive)

---
get_value(item= `NC(=O)COC(=O)c1c(Cl)nc2sccn12` , readout=GI50) returns > 100 µM (inactive)

What the record says about `O=C(CCN1CCCC1)Nc1ccc2sc3ccccc3c(=O)c2n1` : GI50 is 11.7 µM (inactive)

* * *

tested on: SNB-19; experiment: NCI tumour cell line growth inhibition, 48 h
Calls of active or inactive are those of the source. Rule as the data show it: active = GI50 up to about 1.1 µM and inactive = higher.
Readout: GI50

Looking up `CN(C)CCCc1c[nH]c2ccccc12` , I found its GI50 recorded as > 100 µM (inactive)

# GI50 (molecule: `Cc1cc(C(=O)NCCN(C)C)c2nc3ccccc3cc2c1` ) is 2.01 µM (inactive)

Reported GI50 ( `O=c1c2cc([N+](=O)[O-])ccc2[nH]n1Cc1ccccc1Cl` ) = > 100 µM (inactive)

// field: GI50; key: `CN(CCO)Cc1ncccc1O` ; value = > 100 µM (inactive)

// GI50 lookup, molecule = `CC(C)(Oc1ccc(C(=O)c2ccc(Cl)cc2)cc1Cl)C(=O)N1CCN(c2ccccc2)CC1` , result: > 100 µM (inactive)

---
molecule `Cc1cc(C)nc(/C(=N\NC(N)=O)C(=O)Nc2nc3ccc(C)cc3s2)c1` , GI50 observed: > 100 µM (inactive)

// GI50 lookup, molecule = `[N-]=[N+]=Nc1ccc(S(=O)(=O)Oc2cc(OS(=O)(=O)c3ccc(N=[N+]=[N-])cc3)cc(OS(=O)(=O)c3ccc(N=[N+]=[N-])cc3)c2)cc1` , result: > 10 µM (inactive)

What the record says about `CN(C)C(=O)NCCN1CCCCCc2ccccc21` : GI50 is > 100 µM (inactive)

Measured GI50, COC(=O)[C@@H](Cc1ccccc1)N1O[C@]12CCCC[C@@H]2NC(=O)OC(C)(C)C (stereo not given in full) : 74.3 µM (inactive)

The reported GI50 of the molecule `CON(C)C(C#N)=C(C#N)C#N` was > 10 µM (inactive)

The value of GI50 measured for the molecule COC12CCC(C(C(=O)c3ccccc3)=C1C(=O)c1ccccc1)C(O)C2 (stereo not given) turned out to be > 100 µM (inactive)

GI50 recorded for this molecule, O=[N+]([O-])c1ccc(N2N=C(c3ccc(NCc4nc5ccccc5[nH]4)cc3)CC2c2ccco2)cc1 (stereo not given) , is 23.4 µM (inactive)

// field: GI50; key: COC(=O)c1ccccc1C1CN=NC12Cc1c(C)ccc(C)c1C2=O (stereo not given) ; value = > 100 µM (inactive)

The molecule listed as `CCOC(=O)C1=C(NC(C)(C)C)OCC1=O` shows GI50 equal to > 100 µM (inactive)

GI50 reading for CCOC(OCC)C(CC)[Se]c1ccccc1 (stereo not given) : > 100 µM (inactive)

The reported value for COC(=O)[C@@]1(NC(=O)C(CC(=O)OC(C)(C)C)NC(=O)OC(C)(C)C)C[C@H]1C (stereo not given in full) in terms of GI50 is > 100 µM (inactive)

Lookup result for CC(=O)N1c2ccccc2C23CCN(C)CC4C(C)OCC(C4CC2=O)C13 (stereo not given) ; measured GI50: > 100 µM (inactive)

// GI50 lookup, molecule = COC(=O)C1=C(OC(=O)/C(=C/c2ccccc2)c2ccc(Cl)cc2)C(C(=O)OC)[C@@]2(O)[C@@H](C(=O)OC)[C@H](C)C[C@@H]1[C@@H]2C(=O)OC (stereo not given in full) , result: > 100 µM (inactive)
